Where do these numbers come from? They come from patent US20100081679A1.

Listed next: entries and their corresponding logP.
Test: logP determination via retention times, calibrated with unbranched alkan-2-ones
Assay type: physicochemical
Details: HPLC on reversed-phase C18 column (EEC Directive 79/831 Annex V.A8); method *: 40° C.; 0.1% aqueous formic acid and acetonitrile; linear gradient 10% to 95% acetonitrile
Marks after values point to notes of the source that are not given here.

Sure, the documented logP for O=C(Nc1ccc(Nc2ncc(C(F)(F)F)c(NCC3CC3)n2)cc1)C(F)(F)F [compound 203] is 2.84*

Documented logP of COc1cc(Nc2ncc(C(F)(F)F)c(NCC3CC3)n2)cc(OC)c1OC [compound 217] : 2.57*

The recorded logP for entry CS(=O)(=O)Cc1cccc(Nc2ncc(Cl)c(NC3CC3)n2)c1 [compound 243] equals 1.46*
